Target: T1, human LAG3, full length, stably expressed on cells (human, UniProt P18627 23-525)
T1 construct: whole, on cells; also called CHOK1-human LAG3
T1 sequence (looked up): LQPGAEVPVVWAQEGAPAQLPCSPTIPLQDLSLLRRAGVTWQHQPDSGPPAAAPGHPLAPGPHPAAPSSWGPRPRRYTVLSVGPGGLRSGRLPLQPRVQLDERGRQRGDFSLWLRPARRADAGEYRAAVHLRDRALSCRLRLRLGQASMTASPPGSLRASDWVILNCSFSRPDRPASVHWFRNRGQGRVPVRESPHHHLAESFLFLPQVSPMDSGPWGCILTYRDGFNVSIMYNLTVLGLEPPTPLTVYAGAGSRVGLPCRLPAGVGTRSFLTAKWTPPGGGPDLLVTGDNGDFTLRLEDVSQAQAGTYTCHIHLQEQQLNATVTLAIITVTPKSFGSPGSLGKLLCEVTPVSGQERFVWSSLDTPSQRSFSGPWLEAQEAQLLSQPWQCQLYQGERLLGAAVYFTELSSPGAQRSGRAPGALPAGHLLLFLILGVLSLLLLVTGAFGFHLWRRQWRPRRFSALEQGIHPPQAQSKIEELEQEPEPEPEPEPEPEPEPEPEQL
Experiment: FACS on 293F cells stably expressing human LAG3
Readout Label: TOP MFI

023c (antibody, human IgG4, V domains shown, human IgG4 S228P / kappa chimeric antibody; also called chimeric antibody 023; ES005-023c; not shown: human kappa light chain constant region (pcDNA3.4-hIgGk vector)) VH: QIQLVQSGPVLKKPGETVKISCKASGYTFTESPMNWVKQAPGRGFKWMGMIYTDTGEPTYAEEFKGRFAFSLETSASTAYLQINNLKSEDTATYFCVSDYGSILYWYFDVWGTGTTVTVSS VL: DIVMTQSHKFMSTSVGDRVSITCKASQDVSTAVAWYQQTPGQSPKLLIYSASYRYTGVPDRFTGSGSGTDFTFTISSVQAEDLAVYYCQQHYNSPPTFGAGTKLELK ... 387

Query: So what's the measured TOP MFI for this one? 033c (antibody, human IgG4, V domains shown, human IgG4 S228P / kappa chimeric antibody; also called chimeric antibody 033; not shown: human kappa light chain constant region (pcDNA3.4-hIgGk vector)) VH: EVQLQQSGAELVRPGASVKLSCTASDFNIKDDYIHWVKQRPEQGLEWIGWIDLENGDTEYASKFQGKATITADTSSNTAYLQLSSLTSEDTAVYYCTTKGSHWGQGTLVTVSA VL: DVVMTQIPLSLPVSLGDQASISCRSSQSLVYSNGNTYLNWYLQKPGQSPKLLIHKVSNRFSGVPDRFSGSGSGTDFTLKISRVEAEDLGVYFCSQSTHVPYTFGGGTKLEIR
Reply: 394
